Source listed as PubChem BioAssay (NCI).

Test system: OVCAR-5 ovarian
METHOD SUMMARY: NCI tumour cell line growth inhibition, 48 h
QUANTITY MEASURED: TGI

IN: # return recorded TGI for entry `[O]=[Sn]([CH]1CCCCC1)[CH]1CCCCC1`
OUT: 1.71 µM

IN: # return recorded TGI for entry `S=C(NCc1ccccn1)N/N=C/c1ccccn1`
OUT: > 100 µM

IN: # return recorded TGI for entry `CCOC(=O)[C@@]12C[C@](/C=C/OC)(O[Si](C)(C)C)[C@@]13c1cc(OC)c(OC)cc1CCN3C(=O)C2=O`
OUT: > 100 µM

IN: # return recorded TGI for entry `CO[C@@]12C[C@H](CNC(=O)c3ccc[nH]3)O[C@@H]1NC(=O)N2`
OUT: > 100 µM

IN: # return recorded TGI for entry `CC(C)(C)OC(=O)Cn1ncn(NC(=O)Cc2ccccc2)c1=S`
OUT: > 10 µM

IN: # return recorded TGI for entry `O=C1CCC(c2ccccc2)=NN1c1nc2ccccc2s1`
OUT: > 100 µM

IN: # return recorded TGI for entry `CCCN1C(=O)/C(=C/c2ccc(SC(F)(F)F)cc2)SC1=Nc1ccc(OC)cc1`
OUT: 24 µM

IN: # return recorded TGI for entry `O=c1ccc(N=Nc2ccccc2)ccc1O`
OUT: 47.4 µM

IN: # return recorded TGI for entry `Cc1c2cc[n+](Cc3ccc(I)cc3)cc2c(C)c2c1[nH]c1ccccc12`
OUT: 11.3 µM

IN: # return recorded TGI for entry `O/N=C\c1c2c(cc3c1CCC3)CCC2`
OUT: > 100 µM

IN: # return recorded TGI for entry Cc1c(Cl)ccc2c1NC(=O)C2(O)CC(=O)c1ccc(Cl)cc1 (stereo unspecified)
OUT: > 100 µM

###

Tested on: UACC-257 melanoma
METHOD SUMMARY: NCI tumour cell line growth inhibition, 48 h
For each record, write down the corresponding TGI.

IN: # return recorded TGI for entry `CCN(CC)CCOC(COc1cc(C)cc(C)c1)COc1cc(C)cc(C)c1`
OUT: 17.2 µM

IN: # return recorded TGI for entry `Cc1c(C#N)c2nnn(-c3cccc(Cl)c3)c(=O)n2c1-c1ccccc1`
OUT: > 100 µM

IN: # return recorded TGI for entry C=CCOCC1C2CCC3(OCCO3)C21 (stereo unspecified)
OUT: > 100 µM

IN: # return recorded TGI for entry `COc1cccc(NC(=O)CC(=O)NN)c1`
OUT: > 100 µM

IN: # return recorded TGI for entry Cc1c(Cl)ccc2c1NC(=O)C2(O)CC(=O)c1ccc(Cl)cc1 (stereo unspecified)
OUT: > 55.9 µM

IN: # return recorded TGI for entry `CC(C)(Oc1ccc(-c2cccc3ccccc23)cc1)C(=O)O`
OUT: > 100 µM

IN: # return recorded TGI for entry `Nc1ccc(CC[C@H]2CCC/C=C/[C@@H]3C[C@H](O)C[C@H]3[C@H](O)/C=C/C(=O)O2)cc1`
OUT: 37.1 µM

IN: # return recorded TGI for entry C[N+](C)(C)CC1CCC(C[N+](C)(C)C)C1=NO (stereo unspecified)
OUT: > 100 µM

IN: # return recorded TGI for entry `CCn1c(-c2nonc2N)nc2ccccc21`
OUT: > 25 µM

IN: # return recorded TGI for entry `c1ccc(C(Oc2noc3ccccc23)c2ccccc2)cc1`
OUT: 99.6 µM

IN: # return recorded TGI for entry CCOc1ccc2nc(NC(=O)C(=O)C3C(=O)C(CC4C(=O)c5ccccc5C4=O)C(=O)CC3(C)C)sc2c1 (stereo unspecified)
OUT: > 100 µM

###

System: A549 NSCLC
METHOD SUMMARY: NCI tumour cell line growth inhibition, 48 h
For each record, write down the corresponding TGI.
All answers are understood in µM, so give the number only.

IN: Look up A549 NSCLC data: TGI of `CN(CCN)[C@H](CSSC[C@@H](c1ccccc1O)N(C)CCN)c1ccccc1O` , then report it.
OUT: 23.9

IN: Look up A549 NSCLC data: TGI of `Fc1ccccc1CN1COc2c(cc(Cl)c3cccnc23)C1` , then report it.
OUT: 10.9

IN: Look up A549 NSCLC data: TGI of `[O]=[Sn]([CH]1CCCCC1)[CH]1CCCCC1` , then report it.
OUT: 2.89

IN: Look up A549 NSCLC data: TGI of O=C(Nc1ccn(C2CC(O)C(COC(c3ccccc3)(c3ccccc3)c3ccccc3)O2)c(=O)n1)c1ccccc1 (centres undefined) , then report it.
OUT: 16.7

IN: Look up A549 NSCLC data: TGI of `CCOC(=O)Cc1c(C(=O)OCC)[n+](=O)c2cc(Cl)c(Cl)cc2n1[O-]` , then report it.
OUT: 3.72

IN: Look up A549 NSCLC data: TGI of `Cc1ccc(NCCNCC(C)(C)O)c2c(=O)c3ccc(Cl)cc3sc12` , then report it.
OUT: 3.09

IN: Look up A549 NSCLC data: TGI of `O=C(Nc1cccc(-n2ccc3c(NC(=O)c4ccccc4)ncnc32)c1)Nc1ccc(Cl)c(C(F)(F)F)c1` , then report it.
OUT: 7.35

IN: Look up A549 NSCLC data: TGI of `O=c1ccc(N=Nc2ccccc2)ccc1O` , then report it.
OUT: 27.8

IN: Look up A549 NSCLC data: TGI of `NC(=NCCCCCCN=C(N)/N=C(\N)Nc1ccc(Cl)cc1)/N=C(\N)Nc1ccc(Cl)cc1` , then report it.
OUT: 5.3

IN: Look up A549 NSCLC data: TGI of `O=C1C(Cl)=C(Nc2ccc(S(=O)(=O)c3ccc(NC4=C(Cl)C(=O)c5ccccc5C4=O)cc3)cc2)C(=O)c2ccccc21` , then report it.
OUT: 38.8

###

Test system: RPMI-8226 leukemia
METHOD SUMMARY: NCI tumour cell line growth inhibition, 48 h
QUANTITY MEASURED: TGI

IN: # return recorded TGI for entry CC(=O)CCC1(c2ccccc2)OC(=O)C(C#N)=C1c1ccccc1 (centres undefined)
OUT: > 100 µM

IN: # return recorded TGI for entry `Brc1ccc2[nH]c3c(C4=NCCC4)nccc3c2c1`
OUT: > 36 µM

IN: # return recorded TGI for entry CN(C)C(=O)C(F)(F)C(c1ccccc1Br)C1C(=O)N(C)C(=O)N(C)C1=O (centres undefined)
OUT: > 100 µM

IN: # return recorded TGI for entry `COC(=O)Cc1cc(=O)n2c3ccccc3n(C)c2c1C#N`
OUT: > 100 µM

IN: # return recorded TGI for entry O=C1NC(N2CCCC(CO)C2)=N/C1=C\c1cccs1 (centres undefined)
OUT: > 100 µM

IN: # return recorded TGI for entry CCCC1C[C@H]2CCCCN2[C@H]2CCCN12 (some centres undefined)
OUT: > 63.9 µM

IN: # return recorded TGI for entry `S=c1ssnc1-c1cc2ccccc2o1`
OUT: 25.7 µM

IN: # return recorded TGI for entry NC(CCC(=O)c1ccccn1)C(=O)O (centres undefined)
OUT: > 100 µM

IN: # return recorded TGI for entry COC(=O)c1ccccc1C1CN=NC12Cc1ccc(C)cc1C2=O (centres undefined)
OUT: > 100 µM

IN: # return recorded TGI for entry `CC(=O)ON(OCc1ccc2ccccc2c1)C(C)=O`
OUT: > 100 µM

IN: # return recorded TGI for entry `COc1cccc(/C=C2\N=C(c3ccccc3)OC2=O)c1`
OUT: 94.1 µM

IN: # return recorded TGI for entry `O=c1cc(-c2ccccc2)oc2ccc(Cl)cc12`
OUT: > 100 µM

IN: # return recorded TGI for entry `COc1cc2c(c(OC)c1OC)C(=O)c1c(O)cc(C)c(OC)c1C2=O`
OUT: > 100 µM

IN: # return recorded TGI for entry `O=c1c(-c2nc3ccccc3c3ccccc3c2=O)nc2ccccc2c2ccccc12`
OUT: > 100 µM

IN: # return recorded TGI for entry `COCN1C(=O)[C@@H]2CCCN2C(=O)c2ccc(N)cc21`
OUT: > 100 µM

IN: # return recorded TGI for entry COC(=O)CC1(O)C(=O)OCc2c1cc1n(c2=O)Cc2c-1nc1ccccc1c2OC (centres undefined)
OUT: 23.2 µM

IN: # return recorded TGI for entry C[N+](C)(C)CC1CCC(C[N+](C)(C)C)C1=NO (centres undefined)
OUT: > 100 µM

IN: # return recorded TGI for entry `COc1cc(N=Nc2cc(Cc3ccc(N(C)C)cc3)c(N)cc2N(C)C)c2ncccc2c1`
OUT: 2.1 µM

IN: # return recorded TGI for entry `Nc1nc(Cl)c(CO)c(NCC2(CO)CCC2)n1`
OUT: > 100 µM

IN: # return recorded TGI for entry `O=C(O)CN1C(=O)c2ccc(NC(=O)C(=O)O)cc2S1(=O)=O`
OUT: > 100 µM

IN: # return recorded TGI for entry `O=C(O)CNc1ccc2c(c1)Cc1cc(Br)ccc1-2`
OUT: > 95.5 µM

IN: # return recorded TGI for entry `O=C(/C=C/c1ccccc1)c1ccc(Cl)cc1Cl`
OUT: 28.4 µM

IN: # return recorded TGI for entry `COc1cc2c(oc(=O)c3c4occc4cc(OC)c23)c2cccc(O)c12`
OUT: > 100 µM

IN: # return recorded TGI for entry `Clc1cc(N/N=C(\c2ccccc2)c2ccccn2)ncn1`
OUT: 1.92 µM
